system: pig liver chromatin; experiment: Magnetometer detection of substrate metabolism by pig liver chromatin; details: NADPH-dependent
Readout Label: Metabolized by pig liver chromatin

Here are 6 molecules together with their reported answers.
Molecule	Readout Label	Result
CN(C)CCC=C1c2ccccc2CCc2ccccc21 [amitryptyline]	Metabolized by pig liver chromatin	+
C[C@]12CC[C@H]3[C@@H](CCC4=CC(=O)CC[C@@]43C)[C@@H]1CC[C@@H]2O [testosterone]	Metabolized by pig liver chromatin	+
C[C@]12CC[C@@H]3c4ccc(O)cc4CC[C@H]3[C@@H]1CC[C@@H]2O [estridiol, β-estradiol]	Metabolized by pig liver chromatin	−
Nc1ccccc1 [aniline]	Metabolized by pig liver chromatin	−
Cc1c(N(C)C)c(=O)n(-c2ccccc2)n1C [aminopyrine]	Metabolized by pig liver chromatin	−
NCCCCN [putrescine]	Metabolized by pig liver chromatin	+

Consider the record given below.
In plain terms, C[C@]12CCC(=O)C=C1CC[C@@H]1[C@@H]2[C@@H](O)C[C@@]2(C)[C@H]1CC[C@]2(O)C(=O)CO [cortisol] has a documented Metabolized by pig liver chromatin of −
